Data credit: patent US7763615B2

Here the recorded GI50 is given for each entry.
# Test system: SW-620
# experimental details: cells
# Type: cell-based
# condition set: Homo sapiens; SW-620, 48 hours exposure, SRB; read-out: GI50
Returns: string containing the number followed by the unit.

Some entries whose results are on file:
COc1c(C)cc2c(c1O)[C@@H]1C3[C@@H]4SC[C@]5(C(=O)COC[C@@H](c6c7c(c(C)c(OC(C)=O)c64)OCO7)N3[C@@H](O)[C@H](C2)N1C)c1[nH]c2ccc(O)cc2c1CCN5C (stereo partly drawn) ... 0.255 nM
COc1c(C)cc2c(c1O)[C@@H]1C3[C@@H]4SC[C@]5(NCCc6c5[nH]c5ccccc65)C(=O)COC[C@@H](c5c6c(c(C)c(OC(=O)C(F)(F)C(F)(F)C(F)(F)F)c54)OCO6)N3[C@@H](O)[C@H](C2)N1C (stereo partly drawn) ... 22 nM
COc1c(C)cc2c(c1O)[C@@H]1C3[C@@H]4SC[C@]5(NCCc6c5[nH]c5cc(F)ccc65)C(=O)COC[C@@H](c5c6c(c(C)c(OC(C)=O)c54)OCO6)N3[C@@H](O)[C@H](C2)N1C (stereo partly drawn) ... 5.17 nM
COc1ccc2[nH]c3c(c2c1)CCN[C@]31CS[C@@H]2c3c(OC(C)=O)c(C)c4c(c3[C@H](COCC1=O)N1C2[C@H]2c3c(cc(C)c(OC)c3O)C[C@@H]([C@@H]1O)N2C)OCO4 (stereo partly drawn) ... 0.255 nM

Q: Enter measured GI50, system SW-620, for the molecule shown: COc1c(C)cc2c(c1O)[C@@H]1C3[C@@H]4SC[C@]5(NCCc6c5[nH]c5ccc(OCc7ccccc7)cc65)C(=O)COC[C@@H](c5c6c(c(C)c(OC(C)=O)c54)OCO6)N3[C@@H](O)[C@H](C2)N1C (stereo partly drawn)
A: 23.2 nM

Q: Fill: GI50 (SW-620) for this molecule COc1c(C)cc2c(c1O)[C@@H]1C3[C@@H]4SC[C@]5(NCCc6c5[nH]c5c(OCc7ccccc7)cccc65)C(=O)COC[C@@H](c5c6c(c(C)c(OC(C)=O)c54)OCO6)N3[C@@H](O)[C@H](C2)N1C (stereo partly drawn)
A: 6.97 nM

Q: Tell me its GI50 on SW-620: COc1c(C)cc2c(c1O)[C@@H]1C3[C@@H]4SC[C@]5(NCCc6c5[nH]c5ccc(O)cc65)C(=O)COC[C@@H](c5c6c(c(C)c(OC(C)=O)c54)OCO6)N3[C@@H](O)[C@H](C2)N1C (stereo partly drawn)
A: 2.59 nM

Q: Check SW-620 data and give GI50 for COc1c(C)cc2c(c1O)[C@@H]1C3[C@@H]4SC[C@]5(NCCc6c5[nH]c5ccc(C)cc65)C(=O)COC[C@@H](c5c6c(c(C)c(OC(C)=O)c54)OCO6)N3[C@@H](O)[C@H](C2)N1C (stereo partly drawn) .
A: 0.026 nM

Q: Name the value of GI50 reported for COc1c(C)cc2c(c1O)[C@@H]1C3[C@@H]4SC[C@]5(NCCc6c5[nH]c5ccccc65)C(=O)COC[C@@H](c5c6c(c(C)c(OC(C)=O)c54)OCO6)N3[C@@H](O)[C@H](C2)N1C (stereo partly drawn) when tested on SW-620.
A: 2.65 nM
